# Test system: Escherichia coli
# assay explanation: Antimicrobial activity against armA positive Escherichia coli TOP10 producing beta lactamase CTX-M-3 with plasmid MEZ by Etest method
# Type: functional
Some molecules, each annotated with its measured MIC.

given smiles: CCN[C@@H]1C[C@H](N)[C@@H](O[C@H]2OC(CN)=CC[C@H]2N)[C@H](O)[C@H]1O[C@H]1OC[C@](C)(O)[C@H](NC)[C@H]1O
target of assay: Escherichia coli
MIC: > 256 µg/mL
--
given smiles: CO/N=C(\C(=O)N[C@@H]1C(=O)N2C(C(=O)O)=C(COC(C)=O)CS[C@H]12)c1csc(N)n1
target of assay: Escherichia coli
MIC: > 32 µg/mL
--
given smiles: NCC[C@H](O)C(=O)N[C@@H]1C[C@H](N)[C@@H](O[C@H]2O[C@H](CN)[C@@H](O)[C@H](O)[C@H]2O)[C@H](O)[C@H]1O[C@H]1O[C@H](CO)[C@@H](O)[C@H](N)[C@H]1O
target of assay: Escherichia coli
MIC: > 256 µg/mL
